target: Aβ42 (Homo sapiens, UniProt P05067); assay: Th-T (thioflavin-T) assay of Aβ42 aggregation; format: biochemical; settings: column suffix _50; reading M15
Sequence (P05067 672-713): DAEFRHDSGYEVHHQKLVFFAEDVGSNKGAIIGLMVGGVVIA
Please assign not satisfied whenever Th-T assay signal, mean of three wells (Fig. 7a) is at or above 0.2, and satisfied whenever it is below.

Please review the following examples before continuing.
# molecule, category
measured = [
    ("C=C1CCC2C(C)(CCC=C(C)C)C(O)CCC2(C)C1Cc1c(OC)oc(CO)c(C)c1=O (centres unmarked) [Compound 12]", "not satisfied"),
    ("C=C1CC[C@@H]2[C@](C)(CC[C@H]3O[C@H](C=C(C)C)C[C@@]23C)[C@@H]1Cc1c(OC)oc(CO)c(C(=O)OC)c1=O [Compound 21]", "not satisfied"),
    ("C=C1CCC2C(C)(CCC=C(C)C)C(O)CCC2(C)C1Cc1c(OC)oc(C)c(C(=O)OC)c1=O (centres unmarked) [Compound 14]", "not satisfied"),
    ("C=C1CCC2C(C)(CCC=C(C)C)C(O)CCC2(C)C1Cc1c(OC)oc(CO)c(C(=O)OC)c1=O (centres unmarked) [Compound 13]", "satisfied"),
]

Determine if C=C1CC[C@@H]2[C@](C)(CC[C@H]3O[C@H](C=C(C)C)C[C@@]23C)[C@@H]1Cc1c(OC)oc(CO)c(C)c1=O [Compound 20] shows Th-T assay signal, mean of three wells (Fig. 7a) strictly lower than 0.2. not satisfied

---

target: UniProt P05067; experiment: Th-T (thioflavin-T) assay of Aβ42 aggregation; assay type: biochemical; conditions: measurement M8; source data, Ab alone and No Ab as controls
Classification field: satisfied = Th-T assay plate reading, mean of three wells (Supplementary Fig. 47) at or over 0.5; not satisfied = Th-T assay plate reading, mean of three wells (Supplementary Fig. 47) under 0.5.

Please review the following examples before continuing.
# compound, category
measured = [
    ("C=C1CCC2C(C)(CC(=O)C=C(C)C)C(O)CCC2(C)C1Cc1c(OC)oc(C)c(C)c1=O (centres unmarked)", "satisfied"),
    ("C=C1CC[C@H]2[C@]3(C)C[C@H](C=C(C)C)O[C@H]3CC[C@]2(C)[C@@H]1Cc1c(OC)oc(CO)c(C)c1=O", "not satisfied"),
    ("C=C1CCC2C(C)(CCC=C(C)C)C(O)CCC2(C)C1Cc1c(OC)oc(CO)c(C)c1=O (centres unmarked)", "satisfied"),
    ("C=C1CC[C@H]2[C@]3(C)C[C@H](C=C(C)C)O[C@H]3CC[C@]2(C)[C@@H]1Cc1c(OC)oc(C)c(C)c1=O", "not satisfied"),
    ("C=C1CC[C@H]2[C@]3(C)C[C@@H](C=C(C)C)O[C@H]3CC[C@]2(C)[C@@H]1Cc1c(OC)oc(CO)c(C)c1=O", "satisfied"),
]

Shifting focus to the compound that follows.
Reported Th-T assay plate reading, mean of three wells (Supplementary Fig. 47) reaches at least 0.5 for C=C1CCC2C3(C)CC(C=C(C)C)OC3CCC2(C)C1Cc1c(OC)oc(C)c(C)c1=O (centres unmarked) ? not satisfied

---

biological target: Aβ42 (Homo sapiens, UniProt P05067); test: Th-T (thioflavin-T) assay of Aβ42 aggregation; assay type: biochemical; settings: Supplementary Fig. 47; reading M138
readout: Th-T fluorescence, mean of three wells
One number for each entry.

Worked examples follow.
# compound, measured_value
records = [
    ("C=C1CC[C@H]2[C@]3(C)C[C@H](C=C(C)C)O[C@H]3CC[C@]2(C)[C@@H]1Cc1c(O)c(C)c(C)oc1=O [Compound 6, subglutinol B]", 3.036),
    ("C=C1CC[C@H]2[C@]3(C)C[C@@H](C=C(C)C)O[C@H]3CC[C@]2(C)[C@@H]1Cc1c(O)c(C)c(C)oc1=O [Compound 5, subglutinol A]", 2.649),
    ("C=C1CCC2C(C)(CC(=O)C=C(C)C)C(O)CCC2(C)C1Cc1c(OC)oc(CO)c(C)c1=O (stereo not drawn) [Compound 19]", 3.596),
    ("C=C1CCC2C(C)(CC(=O)C=C(C)C)C(O)CCC2(C)C1Cc1c(OC)oc(C)c(C)c1=O (stereo not drawn) [Compound 25]", 3.512),
    ("C=C1CC[C@H]2[C@]3(C)C[C@H](C=C(C)C)O[C@H]3CC[C@]2(C)[C@@H]1Cc1c(OC)oc(C)c(C)c1=O [Compound 24]", 3.855),
    ("C=C1CCC2C(C)(CCC=C(C)C)C(=O)CCC2(C)C1Cc1c(O)c(C)c(C)oc1=O (stereo not drawn) [Compound 8]", 2.179),
    ("C=C1CCC2C(C)(CCC=C(C)C)C(O)CCC2(C)C1Cc1c(OC)oc(C)c(C)c1=O (stereo not drawn) [Compound 15, viridoxin A hydrolysate]", 3.365),
    ("C=C1CCC2C(C)(CCC=C(C)C)C(O)CCC2(C)C1Cc1c(OC)oc(C)c(C)c1=O (stereo not drawn) [Compound 11]", 3.302),
]

Th-T fluorescence, mean of three wells lookup needed for C=C1CCC2C(C)(CCC=C(C)C)C(O)CCC2(C)C1Cc1c(O)c(C)c(C)oc1=O (stereo not drawn) [Compound 9, higginsianin B] , thanks. 2.781
